Data origin, for the record: patent US20240270762A1

Molecular target: PBP3 from Escherichia coli (K-12) (Escherichia coli, UniProt P0AD68)
Sequence (P0AD68 1-577): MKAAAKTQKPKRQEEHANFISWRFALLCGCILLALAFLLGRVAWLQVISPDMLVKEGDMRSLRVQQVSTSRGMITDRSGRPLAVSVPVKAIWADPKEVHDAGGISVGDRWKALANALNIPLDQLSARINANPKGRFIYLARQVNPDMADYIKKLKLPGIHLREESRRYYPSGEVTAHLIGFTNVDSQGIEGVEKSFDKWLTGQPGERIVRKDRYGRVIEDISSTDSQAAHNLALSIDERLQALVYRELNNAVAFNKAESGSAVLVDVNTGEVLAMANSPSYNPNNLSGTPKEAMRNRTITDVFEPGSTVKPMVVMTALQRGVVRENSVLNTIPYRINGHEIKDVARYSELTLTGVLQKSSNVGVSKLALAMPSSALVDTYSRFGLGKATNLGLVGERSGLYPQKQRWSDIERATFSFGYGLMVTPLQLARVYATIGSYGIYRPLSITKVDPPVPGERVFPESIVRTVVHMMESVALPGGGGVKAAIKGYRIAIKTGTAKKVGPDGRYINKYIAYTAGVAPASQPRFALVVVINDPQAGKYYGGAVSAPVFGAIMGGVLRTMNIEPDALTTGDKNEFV
Assay: Bocillin-FL fluorescence polarization competition binding, E. coli PBP3
pEC50: −log10 of the molar value.
Recorded pEC50 for the following compounds

GET /values?readout=pEC50&system=PBP3 from Escherichia coli (K-12) (Escherichia coli, UniProt P0AD68)&item= O=C(NCCN1CCN(C(=O)N[C@@H](C(=O)N[C@H]2Cc3ccc(F)c(C(=O)O)c3OB2O)c2cc(F)c(O)c(O)c2Cl)C(=O)C1=O)Nc1ccncc1 [Example 221]
> 5.00

GET /values?readout=pEC50&system=PBP3 from Escherichia coli (K-12) (Escherichia coli, UniProt P0AD68)&item= NC(=O)c1ccc(C(=O)NC(C(=O)N[C@H]2Cc3cccc(C(=O)O)c3OB2O)c2ccc(P(=O)(O)O)cc2)nc1 (stereo partly drawn) [Example 188]
4.30 to 5.00

GET /values?readout=pEC50&system=PBP3 from Escherichia coli (K-12) (Escherichia coli, UniProt P0AD68)&item= NS(=O)(=O)NC(C(=O)N[C@H]1Cc2cccc(C(=O)O)c2OB1O)c1ccc(P(=O)(O)O)cc1 (stereo partly drawn) [Example 58]
< 3.60

GET /values?readout=pEC50&system=PBP3 from Escherichia coli (K-12) (Escherichia coli, UniProt P0AD68)&item= CCN1CCN(C(=O)N[C@@H](C(=O)N[C@H]2Cc3ccc(F)c(C(=O)O)c3OB2O)c2ccc(P(=O)(O)O)cc2)C(=O)C1=O (single isomer, unassigned) [Example 10]
> 5.00

GET /values?readout=pEC50&system=PBP3 from Escherichia coli (K-12) (Escherichia coli, UniProt P0AD68)&item= O=C(O)c1c(F)ccc2c1OB(O)[C@@H](NC(=O)C(NC(=O)N1CCN(C3CCN(C(=O)Nc4cccc(O)c4)CC3)C(=O)C1=O)c1cc(F)c(O)c(O)c1Cl)C2 (stereo partly drawn) [Example 424]
> 5.00

GET /values?readout=pEC50&system=PBP3 from Escherichia coli (K-12) (Escherichia coli, UniProt P0AD68)&item= O=C(O)c1cccc2c1OB(O)[C@@H](NC(=O)C(NC(=O)[C@H]1CCCN1)c1ccc(P(=O)(O)O)cc1)C2 (stereo partly drawn) [Example 52]
< 3.60

Continuing:
GET /values?readout=pEC50&system=PBP3 from Escherichia coli (K-12) (Escherichia coli, UniProt P0AD68)&item= O=C(NCCCN1CCN(C(=O)N[C@H](C(=O)N[C@H]2Cc3ccc(F)c(C(=O)O)c3OB2O)c2cc(F)c(O)c(O)c2Cl)C(=O)C1=O)c1cccc(O)c1Cl [Example 302]
< 3.60

GET /values?readout=pEC50&system=PBP3 from Escherichia coli (K-12) (Escherichia coli, UniProt P0AD68)&item= O=C(CN1CCN(C(=O)N[C@@H](C(=O)N[C@H]2Cc3ccc(F)c(C(=O)O)c3OB2O)c2cc(F)c(O)c(O)c2Cl)C(=O)C1=O)NCc1nccs1 [Example 241]
> 5.00

GET /values?readout=pEC50&system=PBP3 from Escherichia coli (K-12) (Escherichia coli, UniProt P0AD68)&item= CCN1CCN(C(=O)NC(C(=O)N[C@H]2Cc3cccc(C(=O)O)c3OB2O)c2ccc(P(=O)(O)O)c(F)c2O)C(=O)C1=O (stereo partly drawn) [Example 198]
4.30 to 5.00

GET /values?readout=pEC50&system=PBP3 from Escherichia coli (K-12) (Escherichia coli, UniProt P0AD68)&item= CS(=O)(=O)N1CCN(C(=O)N[C@@H](C(=O)N[C@H]2Cc3cccc(C(=O)O)c3OB2O)c2ccc(P(=O)(O)O)c(F)c2)C1=O (single isomer, unassigned) [Example 15]
> 5.00

GET /values?readout=pEC50&system=PBP3 from Escherichia coli (K-12) (Escherichia coli, UniProt P0AD68)&item= CC(C)(C)C(=O)NC(C(=O)N[C@H]1Cc2cccc(C(=O)O)c2OB1O)c1ccc(P(=O)(O)O)cc1 (stereo partly drawn) [Example 29]
3.60 to 4.30

GET /values?readout=pEC50&system=PBP3 from Escherichia coli (K-12) (Escherichia coli, UniProt P0AD68)&item= O=C(NCCCN1CCN(C(=O)NC(C(=O)N[C@H]2Cc3ccc(F)c(C(=O)O)c3OB2O)c2cc(F)c(O)c(O)c2Cl)C1=O)c1nccs1 (stereo partly drawn) [Example 257]
4.30 to 5.00

###

Tested on: N. gonorrhoeae FA1090
Experiment: Liquid broth MIC in Fastidious broth
Conditions: Neisseria gonorrhoeae, FA1090, read-out: Minimum Inhibitory Concentration (MIC), N. gonorrhoeae FA 1090
Recorded MIC for the following compounds

What does the data say about its MIC? Entry: CC(=O)NC(C(=O)N[C@H]1Cc2cccc(C(=O)O)c2OB1O)c1ccc(P(=O)(O)O)cc1 (stereo partly drawn)
16 to 32 µg/mL

What does the data say about its MIC? Entry: `O=C(NCCN1CCN(C(=O)N[C@@H](C(=O)N[C@H]2Cc3ccc(F)c(C(=O)O)c3OB2O)c2cc(F)c(O)c(O)c2Cl)C(=O)C1=O)Nc1ccncc1`
1 to 2 µg/mL

What does the data say about its MIC? Entry: CCN1CCN(C(=O)NC(C(=O)N[C@H]2Cc3cccc(C(=O)O)c3OB2O)c2ccc(S(=O)(=O)O)cc2)C(=O)C1=O (stereo partly drawn)
< 1 µg/mL

What does the data say about its MIC? Entry: O=C(O)c1cccc2c1OB(O)[C@@H](NC(=O)C(NC(=O)N1CCN(Cc3ccc(O)c(O)c3Cl)C(=O)C1=O)c1ccc(P(=O)(O)O)cc1)C2 (stereo partly drawn)
< 1 µg/mL

What does the data say about its MIC? Entry: O=C(O)c1cccc2c1OB(O)[C@@H](NC(=O)C(NS(=O)(=O)C1CC1)c1ccc(P(=O)(O)O)cc1)C2 (stereo partly drawn)
16 to 32 µg/mL

What does the data say about its MIC? Entry: `O=C(O)c1cccc2c1OB(O)[C@@H](NC(=O)[C@H](NC(=O)c1c[nH]ccc1=O)c1ccc(P(=O)(O)O)cc1)C2`
< 1 µg/mL

###

System: A. baumannii CDC-0036
Experiment: microbe, parasite or virus in culture
Type: cell-based
Settings: Acinetobacter baumannii, CDC0036, read-out: Minimum inhibitory concentration (MIC), A. baumannii CDC-0036
Recorded MIC for the following compounds

What does the data say about its MIC? Entry: O=C(O)c1c(F)ccc2c1OB(O)[C@@H](NC(=O)[C@H](NC(=O)N1CCN(C3CCN(C(=O)Nc4ccc(O)c(O)c4Cl)CC3)C1=O)c1ccc(P(=O)(O)O)cc1)C2 (single isomer, unassigned)
< 1 µg/mL

What does the data say about its MIC? Entry: O=C(O)c1c(F)ccc2c1OB(O)[C@@H](NC(=O)C(NC(=O)N1CCN(C3CCN(C(=O)Nc4cc(O)c(F)c(F)c4)CC3)C(=O)C1=O)c1cc(F)c(O)c(O)c1Cl)C2 (some centres unmarked)
2 to 4 µg/mL

What does the data say about its MIC? Entry: O=C(O)c1c(F)ccc2c1OB(O)[C@@H](NC(=O)[C@H](NC(=O)N1CCN(C3CCN(C(=O)c4cc(F)c(O)c(O)c4Cl)CC3)C1=O)c1ccc(P(=O)(O)O)cc1)C2 (single isomer, unassigned)
< 1 µg/mL

What does the data say about its MIC? Entry: `O=C(O)c1cccc2c1OB(O)[C@@H](NC(=O)[C@H](NC(=O)N1CCN(Cc3cc(F)c(O)c(O)c3Cl)C(=O)C1=O)c1ccc(P(=O)(O)O)cc1)C2`
< 1 µg/mL

Moving on to the next compound.
What does the data say about its MIC? Entry: O=C(O)c1c(F)ccc2c1OB(O)[C@@H](NC(=O)[C@H](NC(=O)N1CCN(C3CCN(C(=O)Nc4cc(F)c(O)c(O)c4Cl)CC3)C1=O)c1ccc(P(=O)(O)O)cc1)C2 (single isomer, unassigned)
< 1 µg/mL

###

Test system: E. coli ATCC 25922
Experiment: microbe, parasite or virus in culture
Type: cell-based
Settings: Escherichia coli, ATCC25922, read-out: MIC E. coli 25922
VALUE_TYPE: MIC

What does the data say about its MIC? Entry: CS(=O)(=O)N1CCN(C(=O)N[C@@H](C(=O)N[C@H]2Cc3cccc(C(=O)O)c3OB2O)c2ccc(P(=O)(O)O)cc2)C1=O (single isomer, unassigned) [Example 6]
32 to 64 µg/mL

Continuing:
What does the data say about its MIC? Entry: O=C(NC(C(=O)N[C@H]1Cc2cccc(C(=O)O)c2OB1O)c1ccc(P(=O)(O)O)cc1)c1ccc(Cl)cn1 (stereo partly drawn) [Example 184]
> 128 µg/mL

What does the data say about its MIC? Entry: CN1CCN(C(=O)NC(C(=O)N[C@H]2Cc3cccc(C(=O)O)c3OB2O)c2ccc(P(=O)(O)O)cc2)C1=O (stereo partly drawn) [Example 41]
32 to 64 µg/mL

What does the data say about its MIC? Entry: O=C(O)c1cccc2c1OB(O)[C@@H](NC(=O)[C@@H](NC(=O)c1cnc3n(c1=O)CCS3)c1ccc(P(=O)(O)O)cc1)C2 (single isomer, unassigned) [Example 196]
> 128 µg/mL

What does the data say about its MIC? Entry: Nc1nc(C(=O)N[C@@H](C(=O)N[C@H]2Cc3cccc(C(=O)O)c3OB2O)c2ccc(P(=O)(O)O)cc2)cs1 (racemic) [Example 51]
> 128 µg/mL

What does the data say about its MIC? Entry: O=C(O)c1cccc2c1OB(O)[C@@H](NC(=O)[C@H](NC(=O)c1cnc3sccn3c1=O)c1ccc(P(=O)(O)O)cc1)C2 (single isomer, unassigned) [Example 195]
> 128 µg/mL
